Where these numbers come from: patent US4482559A

Assay: LD50 in the mouse by oral route
Conditions: in vivo
observed.property: LD50

Would you please look over these solved cases?
>  <compound>
CN1Cc2sc(CN3CCOCC3)cc2C(c2ccc(Cl)cc2)C1 (stereo not drawn)

>  <LD50>
> 640 mg/kg

$$$$
>  <compound>
Cc1ccc(C2CN(C)Cc3sc(CO)cc32)cc1 (stereo not drawn)

>  <LD50>
~740 mg/kg

$$$$

Problem: If you can, please state the reported LD50 value of CN1Cc2sc(CN3CCOCC3)cc2C(c2ccc(Br)cc2)C1 (stereo not drawn) .
Solution: > 640 mg/kg
